Please provide measured TGI for the entries that follow.
# Tested on: OVCAR-3 ovarian
# PROCEDURE_TEXT: NCI tumour cell line growth inhibition, 48 h
Numbers only, in µM.

For each entry beneath this line, provide reported TGI.
1. OCCN1CCN(CC/C=C2/c3ccccc3Sc3ccc(Cl)cc32)CC1
2. CN(C)CC/C(=N\Nc1ccc(Cl)cc1Cl)c1ccccc1
3. CC(=O)c1cc(O)c2ccccc2c1O
4. COC(=O)C(C)NC(=O)c1ccccc1I(OS(=O)(=O)C(F)(F)F)c1ccccc1 (stereo unspecified)
5. CC(C)(C)c1ccc(NS(=O)(=O)c2ccc3nc(NC(=O)c4cnccn4)[nH]c3c2)cc1
6. COc1cc(Br)c(CC2C3=C(CCN2C(=O)C2CCC2)CC(=O)CC3)cc1O (stereo unspecified)
7. CCCCCCCCCCCCCCCCCC(=O)Nc1ccn(C2OC(CO)C(O)C2O)c(=O)n1 (stereo unspecified)

Reply:
1. 27.9
2. 27
3. 37.5
4. 41.8
5. 3.03
6. 57
7. 69.6

Entry Oc1ccc(Cc2cc(Cl)cc(Cl)c2O)cc1Cl ; TGI = 36.6

====

Please provide measured GI50 for the entries that follow.
# Test system: CAKI-1 renal
# PROCEDURE_TEXT: NCI tumour cell line growth inhibition, 48 h

Consider the following illustrative entries.
STRUCTURE_STRING	GI50
COc1ccc2ccc3oc([N+](=O)[O-])cc3c2c1	186 nM
COc1ccc(Cn2cc3c(c2-c2cc(OC)c(OC)c(OC)c2)CCc2cnoc2-3)cc1	334 nM

Please turn your attention to the following entry.
Entry Cc1cc(I)cc(CN(C)CCCN2CCN(C)CC2)c1O ; GI50 = 20300 nM

====

# System: CCRF-CEM leukemia
# PROCEDURE_TEXT: NCI tumour cell line growth inhibition, 48 h
*1 amine or outer side, *2 acyl side, *3 side chain or, on linkers, in order; H or OH if unused. Where a SMILES comes first, the peptide text is derived from it. Bridges are numbered along the chain shown (N, C = ends). Roman numbers before positions name the chains, in order. [ ]: non-standard residue; d: D form. Actinocin(9to1) = Cc1c2oc3c(C)ccc(C(=O)[*:1])c3nc-2c(C(=O)[*:2])c(N)c1=O; NMeF = CN[CH](Cc1ccccc1)C(=O)O; Sar = CNCC(=O)O
READOUT_KIND: TGI

COMPOUND	READOUT_KIND	RESULT
COC(=O)c1nn(C(=N)c2ccc(Cl)cc2)c2c1CCC2	TGI	> 100 µM

For each entry beneath this line, provide reported TGI.
1. OC1C[C@H](c2ccccc2)C2(C(O)c3ccccc3C2O)[C@@H](c2ccccc2)C1 (stereo partly drawn)
2. Cc1coc2c1C(OC(=O)C(C)C)C1(C)C(C)CCC(O)C1C2=O (stereo not drawn)
3. CCCCCCCCCCCCCC(=O)N(CCCCCCCCC)CC(O)C(O)C(OC1OC(CO)C(O)C(O)C1O)C(O)CO (stereo not drawn)
4. C[C@]12CCC(=O)C=C1CC[C@@H]1C2CC[C@]2(C)c3nn(-c4ccccc4)nc3CC12 (stereo partly drawn)
5. CC(=O)/C(=C/N1CCNC1=S)C(=O)Nc1ccccc1C
6. O=S1Nc2c(Cl)cc(Cl)c(Cl)c2S1 (stereo not drawn)
7. Cc1c([N+](=O)[O-])oc2ccc3ccccc3c12

Reply:
1. > 100 µM
2. > 100 µM
3. 45.4 µM
4. > 100 µM
5. > 100 µM
6. > 100 µM
7. > 100 µM

For each entry beneath this line, provide reported TGI.
1. COc1c(B(O)O)cc(F)cc1-c1nc2ccc3[nH]ncc3c2c2c1CCCC2
2. COc1cccc2c1n([O-])c1cccc(OC)c1[n+]2=O
3. CN1C/C(=C\C=C\c2ccccc2)C(=O)/C(=C/C=C/c2ccccc2)C1
4. O=C(O)C(=O)/C=C(\O)c1ccc(Br)cc1
5. Cc1c2oc3c(C)ccc(C(=O)NC4C(=O)NC(C(C)C)C(=O)N5CCCC5C(=O)N(C)CC(=O)N(C)C(Cc5ccccc5)C(=O)OC4C)c3nc-2c(C(=O)NC2C(=O)NC(C(C)C)C(=O)N3CCCC3C(=O)N(C)CC(=O)N(C)C(Cc3ccccc3)C(=O)OC2C)c(N)c1=O (stereo not drawn) (I: TVP[Sar][NMeF] / II: TVP[Sar][NMeF]; ester I:1-I:C, II:1-II:C; linker I:N-II:N via Actinocin(9to1); configuration not given here)

Reply:
1: > 38.6 µM; 2: 35.7 µM; 3: > 100 µM; 4: > 100 µM; 5: 0.0102 µM

Ref: PubChem BioAssay (NCI)
